# Assay Info: yeast display, Sf9 membrane polyspecificity reagent, FACS + sequencing; frameworks hold sequencing errors
Measurement Kind: polyreactivity (PSR sort gate)

{"columns": ["Entry Sequence", "Reading"],
 "data": [
  ["QVQLVESGAGLVQAGGSLRFSCAASGFIFVDNTMGWSSQAPGKEMELVAAISYSAGSTYYADSVKGRFTISRDNAMNTVYLQMNCLKPEDTAVYDCAAQHSWVTSYLYSYDYWGQGTQVTVSS", "low polyreactivity"],
  ["QDQLVESGGGLVQAGGSQRLSCAASGFTFRRYAMGWYRQEPGKERELVAVITTAGSTNYADSVKGRFTISRDNAKNTVYLPMNSLKPEDTAVYYCATDNGTRKGRYDYWGQGTQVTVSS", "low polyreactivity"],
  ["QVQLVESGGGLVQAGGSLRLSCAASGFTLPVYAMGWYRQAPGKERELVARITWSAGRTYYADSVKGRFTISRDNAKNTVYLQMNSLKPEDTAVYYCAAGPVSQQHSPGPHDYWGQGTQVTVSS", "high polyreactivity"],
  ["QVQLVESGGGLVQAGGSLRLSCAASGITLGRYAMGWYRQAPGKERELVAAISRSGGSTYYADSVKGRFTISRANAKTTVYLQMNSLKPEDTAVYYCNRRVYPTSDYDYWGQGTQVTVSS", "high polyreactivity"],
  ["QVQLVESVGGLVQAGGSLRLSCAASGRTFDGNAMGWYRQAPGKERELVAAIRFNGSTTYYADSVKGRFTISRDNSKNTVYLQMNSLKPEDTAVYYCNKFEGALGGMDYWGQGTQVTVSS", "low polyreactivity"],
  ["QVQLVESGGGLVQTGGTLRLSCAASGRSFNRNARAWYRLAPGKERELVAAISSRVGRTYYADSVKGRFTISRDNAKNSVYLKMNSLKQEETAVYYCNAVYSQSCYFYRFDYWGQGTQVNVSS", "high polyreactivity"],
  ["QVQLVESGGGLVQAGGSLRLSCAASGRTFYANAMGWYRQAPGKERELVAAITYRGGSTNYADSVKGRFTISRDNAKNTVYLQMNSLKPEDTAVYYCAKVYNPNYLWYLTYGYDYWGQGTQVTVSS", "low polyreactivity"],
  ["QVQLVESGGGLVQAGGSLRLSCAASGRIFGNYAMGWYRQAPGKERELVAAISGGGSTYYADSVKGRFTISRDNAKNTVYLQMNSLKPEDTAVYYCAARFLWSVFGHKGGYWGQGTQVTVSS", "low polyreactivity"],
  ["QDQLVESGGGLVQAGGSLRLSCAASGATYRNNAMGWYRQAPGKERELVAAISRGGGSTYYADSVNGRFTISRDNAKNNVYLQMNSLKPEDTAVYYCARRPTGIYDYWGQGTQVTVSS", "high polyreactivity"],
  ["QVQLVESGGGLVQAGGSLRLTCAASGRTFLLYAMGWYRQAPGKERELVAAITSRSGRTYYADSVKGRFTISRDNAKNTVYLQMNSLKPEDTAVYYCAAQGYAPQEYEYWGQGTQVTVSS", "high polyreactivity"],
  ["QVQLVESGGGLVQSGGSLRLSCAASGNTFHSNAMGWYRQAPGKERELVAAITPSDGDTYYADSVKGRFTISRDNAKNTVYLQMNSLKPEDTAVYYCNARKQVYKIYYSDYRRYDYWGQGTQVTVSS", "low polyreactivity"]
]}

====

# Assay Info: yeast display, Sf9 membrane polyspecificity reagent, FACS + sequencing; frameworks hold sequencing errors
Measurement Kind: polyreactivity (PSR sort gate)

{"columns": ["Entry Sequence", "Measurement Kind", "Reading"],
 "data": [
  ["QVQLVESGGGLVQAGGSLRLSCAASGSIFTRNAMGWYRQAPGKERELVATIRKNGASTTYADSVKGRFTISRDNAKNTVYLQMNSLKPEDTAVYYCARDHHTKYNYWGQGTQVTVSS", "polyreactivity (PSR sort gate)", "low polyreactivity"],
  ["QVQLVESGGGLVQAGGSLRLSCADSGRTFYYYAMGWYRQAPGKERELVASISYSAGRTYADSVKGRFTISRDNAKNTVYLQMNSLKPEDTAVYYCNADVTTVPYTNDYWGQGTQVTVSS", "polyreactivity (PSR sort gate)", "high polyreactivity"],
  ["QVQLVESGGGLVQAGGSLRLSCAASGFTFKKYAMGWYRQAPGKERELVASITWSGGSTSYADSVKGRFTISRDNAKNTVYLQMNSRKPEDTAVYYCDAATFVYRLRYNRFDYWGQGTQVTVSS", "polyreactivity (PSR sort gate)", "high polyreactivity"],
  ["QDQLVESRGGLVQAGGSLRLSCAASGFTFPSYAMGWYRQAPRKERELVAAITRSGGRTYYADSVKGRFTISRDNAKNTVYLQMNILKPEDTAVYYGAADRAAPRYDYWGQGTQVTVSS", "polyreactivity (PSR sort gate)", "high polyreactivity"],
  ["QVQLVESGGGLVQAGGSLRLSCAASGSTFLRYAMGWARQAPGKERELVARISGGGTTYYADSVKGRFTISRDNAKNTVYLQMNSLKPEDTAVYYCAARAIYWSRYDYWGQGTQVTVSS", "polyreactivity (PSR sort gate)", "high polyreactivity"],
  ["QVQLVESGGGLVQAGGSLRLSCAASGRTFGWNAMGWSRQAPGKERELVAAISRTGNTYYADSVKGRFTISRDNAKNTVYLQMNSLKPEDTAVYYCAKGRYYTPTYFRGVDLYDYWGQGTQVTVSS", "polyreactivity (PSR sort gate)", "low polyreactivity"],
  ["QVQHVESGGGLVQAGGSLRLSCAASGRIFAFYAMGWYRQAPGKEREFVAAITWSGTNTYYADSVKGRFTISRDNAKNTVYLQMNSLKPEDTAVYYCNARQYYKYGYWGQGTQVTVSS", "polyreactivity (PSR sort gate)", "high polyreactivity"],
  ["QVQLVESGGGLVQAGGSLRLSCAASGITFDSNTKGWYRPAPGKEREFVATISYSGGSTYYADSVKGRFTISRDNAKNTVYFQMNSLKPEDTAVYYCHADYYGGPTMQYGYLWYDYWGEGTQVTVSS", "polyreactivity (PSR sort gate)", "low polyreactivity"],
  ["QVQLVESGGGLVQAGGSLRLSCAASGRIFRYYAMGWYRQAPGKERELVAAITRGGSTNYADSVKGRFTISRDNAKNTVYLQMNSLKPEDTAVYYCAVRGGYTWPTYNYWGQGTQVTVSS", "polyreactivity (PSR sort gate)", "high polyreactivity"],
  ["QVQLVESGGGLVQAGGSLRLSCAASGFTFKINGKGWYRQAPGKEREFVATIRTSTGRTYYADSVKGRFTISRDNAKNTVYLQMNSLKPEDTAVYYCATDYLFERLLQEMDYWGQGTQVTVSS", "polyreactivity (PSR sort gate)", "high polyreactivity"],
  ["QVQLVESGGGLVQAGGSLRLSCAASGFIFDRYAMGWYRQAPGKERELVAAITGSGGSTYYGDSVKGRFTISRDNAKNTVYLQMNSLKPEDTAVYYCNTGGRSGSPGYDYWGQGTQVTVSS", "polyreactivity (PSR sort gate)", "high polyreactivity"],
  ["QVQLVESGGGLVQAGGSLRLSCAASGRTFTYYAMGWYRQAPGKQRELVASINQNGGDTYYADSVKGRFTLSRDNAKNTDYLQMNSLKPADTAVYYCAAEAGYYVQTVAVDMGYWGQGTQVTVSS", "polyreactivity (PSR sort gate)", "low polyreactivity"],
  ["QVQLVESGGGLVQAGGSLRLSCAASGSTFGYNDMGWYRQAPGKERELVAAISVSDSSTYYADSVKGRFTISRDNAKNTVYLQMNSLKPEDTAVYYCAAYIYYNYSRQYWYDYWGQGTQVTVSS", "polyreactivity (PSR sort gate)", "low polyreactivity"],
  ["QVQLVESGGGLVQAGGSLRLSCAASGRLFVYNAMGWYRQAPGKERELVASISWSGDSTYADSVKGRFTISRDNAKNTVYIQMNSLKPEDTAVYYCAAYSQADYQNMDYWGQGTQVTVSS", "polyreactivity (PSR sort gate)", "low polyreactivity"],
  ["QVQLVESGGGIVQAGGSLRLTCDASGFTFVINDMGRYRQARGKERELVADITSGGDTYYADSVKGRFTISRDNAKNSVYFHRNSLKPEDTAVYFCAADIYPDWIYLLYGYWGQGTQLTVSS", "polyreactivity (PSR sort gate)", "low polyreactivity"],
  ["QDQHVESGGGLVQAGGSLRLSCAASGIIFYAYVMGWYRQAPGKERELVAAITVSGGSTYYADSVKARFTISRDNAKNTVYLQMNSLKPEDTAVYYCAADWNFYQRTFDSWGQGTQVTVSS", "polyreactivity (PSR sort gate)", "low polyreactivity"],
  ["QVQLVESGGGVVQAGGSLRLSCAASGRIFVGYDMGWYRQAPGKEWELVAAINRSGSSTYYADSVKGRFTISRDNAKNTVYLQMNSLKPEDTAVYYCNDRSGNRYGPRYDYWGQGTQVTVSS", "polyreactivity (PSR sort gate)", "high polyreactivity"],
  ["QVQLVESGGGLVQAGGRLRLSCAASGSTLYAYGMGWYRQAPGKERELVAAIRTGGSTYYADSVKGRFTISRDNAKITVYLQMNSLKPEDTAVYYCAADHGYQYGYWGQGTQVTVSS", "polyreactivity (PSR sort gate)", "low polyreactivity"],
  ["QVQLEESGGGLEQAGGSLRLSCAATGSIFNFYAMAWYIRAPGKERELVAAITRSGGSTYYADSVKGRFTISRDNAKNTVYLQMNSLIPEDTAVYYCSAASRKRTSREPLDYWGQGTQVTVSS", "polyreactivity (PSR sort gate)", "high polyreactivity"],
  ["QLQLVESGGGLVQAGGSLRLSCAASGFTFYRYAKGWYRQAPGKARELVAAISWSGGTTYFADSVKGRFTISRDNAKNTVYLQMNSLTPEDTAVEYCNARFIARSGYKVDYDYWGQGTQVTVSS", "polyreactivity (PSR sort gate)", "high polyreactivity"],
  ["QVQLVESGGGLVQAGGSLRLSCAASGRIFVYYAMGWYRQAPGKEREFVAAISSRDDSTYYADSVKGRFTISRDNAKNTVYLQMNSLKPEDTAVYYCAADWRLGVGYDYWGQGSQVTVSS", "polyreactivity (PSR sort gate)", "low polyreactivity"]
]}
